Experiment: plasmodial surface anion channel blockers, osmotic lysis – cell-based, P. falciparum Indochina, OD700, 2 h, primary screen (AID 1155);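 further: lysis reports solute entry through the parasite surface anion channel PSAC; channel blockers reduce lysis of infected cells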
Details: P. falciparum Indochina infected erythrocytes, higher = more signal, called active from +8 up or from −8 down
Each entry below carries its recorded z-score.
value_kind: z-score

compound: C=C(C(=O)CC[C@H](OC(=O)c1ccccc1-c1ccccc1C(=O)O)c1cccc(OCCO)c1)C(C)C
experimental_result: 0.857
//
compound: O=C(C1N=C(c2ccc(OCCCO)cc2)N(c2ccccc2)O1)N1CCCCC1 (stereo not given)
experimental_result: 1.66
//
compound: Cn1cccc1C(O)C1C=CC2C(=O)N(c3ccccc3)C(=O)C2N1Nc1ccccc1 (stereo not given)
experimental_result: 1.31
//
compound: CCOC(=O)C[C@H]1[C@H](OC(=O)c2cc3ccccc3oc2=O)[C@@H](NC(=O)c2ccc3ccccc3n2)c2cc(OCCCO)ccc2N1C(=O)Cc1ccc(OC)cc1
experimental_result: 1.33
//
compound: Cc1ccc(C(C)CC(O)C2C=CC3C(=O)N(c4ccccc4)C(=O)C3N2Nc2ccccc2)o1 (stereo not given)
experimental_result: 1

* * *

Each entry below carries its recorded z-score.
Test: change in splice reporter luminescence, either direction, cell-based, HEK293, spliceosome inhibition project, primary screen (AID 1101);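 further: HEK293 cells carrying a splicing-competent luciferase reporter gene; test concentration not given here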
Settings: HEK293 splicing luciferase reporter, 24 h, higher = more signal, called active from +8 up or from −8 down
value_kind: z-score

compound: O=C1OCCC=C[C@H]2OC34C=CCN(c5ccc6ccccc6c5)C(=O)[C@H]3N(CCCO)C(=O)[C@@H]4C12 (some centres undefined)
experimental_result: -1
//
compound: COCCCNC(=O)[C@@]1(Sc2ccc(C)cc2)CC(=O)N(C2Cc3ccccc3C2)[C@@H]1c1ccc(CO)cc1
experimental_result: -0.866
//
compound: O=C1C[C@]2(c3ccc([N+](=O)[O-])cc3)C(=O)N(C3CC3)c3cc(CO)ccc3[C@H]2N1CC12CC3CC(CC(C3)C1)C2
experimental_result: -0.922
//
compound: CCOC(=O)C[C@H]1[C@H](OC(=O)c2cc3ccccc3oc2=O)[C@@H](NC(=O)CC(C)C)c2cc(OCCCO)ccc2N1C(=O)c1ccc2ccccc2n1
experimental_result: 0.0136

* * *

Experiment: binders from COS7 lysate, DM2A8 probe, primary screen, torsin A project, cell lysate, small-molecule microarray, fluorescence 635/667 (AID 1065)
Settings: higher = more signal, COS7 lysate expressing mutant human TOR1A

mol: O=C1N(Cc2ccccc2)c2ccccc2C[C@]12N=C(c1ccc(OCCCO)cc1)O[C@@H]2c1ccccc1
composite z-score: 0.278
--
mol: O=C(NCCN1CCOCC1)[C@@H]1c2ccccc2C(=O)N(C2Cc3ccccc3C2)[C@H]1c1ccc(CO)cc1
composite z-score: 0.0352
--
mol: CC(C)=C1C(=O)C(c2ccccc2)=C2CN3C(=O)N(CCc4ccccc4)C(=O)[C@]3(Cc3ccc(C(F)(F)F)cc3)[C@H]21
composite z-score: -0.192
--
mol: C#CCN([C@@H](Cc1ccccc1)C(=O)OC)[C@@H](/C=C/C1CC1)[C@H](O)Cc1ccccc1
composite z-score: 0.0218
--
mol: CC(C)C[C@@H]1NC(=O)[C@@H]2C[C@H](C(=O)NCCCCCCN)[C@H](c3cccc(OCCO)c3)N2C1=O
composite z-score: -0.262
--
mol: CCCC[C@@H](O)C1=C(COc2ccccc2)C[C@H]2C(=O)N(Cc3ccccc3)C(=O)[C@H]2[C@H]1CO
composite z-score: 0.195
--
mol: CCOC(=O)C[C@H]1[C@H](OC(=O)Cc2ccc3c(c2)OCO3)[C@@H](NC(=O)c2ccc3ccccc3n2)c2cc(OCCCO)ccc2N1C(=O)c1ccc2ccccc2n1
composite z-score: 0.185
--
mol: CCCNC(=O)[C@@]1(C)c2ccccc2C(=O)N(c2ccc(C)cn2)[C@H]1c1ccc(CO)cc1
composite z-score: 0.0231
--
mol: COCCOC(=O)N1C(=O)[C@@]2(c3cc(C#CC4(O)CCCCCC4)ccc31)[C@H](C(=O)Nc1nc3ccccc3s1)[C@H]1C(=O)O[C@H](c3ccccc3)[C@H](c3ccccc3)N1[C@@H]2c1ccc(O)cc1
composite z-score: 0.442
--
mol: CCOC(=O)C[C@H]1[C@H](OC(=O)c2ccc(C(=O)c3ccccc3)cc2)[C@@H](NC(=O)CC(C)C)c2cc(OCCCO)ccc2N1C(=O)c1ccccc1
composite z-score: 0.275
--
mol: CCCN1C(=O)[C@@]2(Cc3ccccc31)N=C(c1ccc(OCCCO)cc1)O[C@H]2c1ccccc1
composite z-score: 0.27
--
mol: CC(C)N1C(=O)c2ccccc2[C@@H](C(=O)NCCN2CCOCC2)[C@@H]1c1ccc(CO)cc1
composite z-score: -0.831
--
mol: NC(=O)NCC#Cc1ccc2c(c1)[C@]1(C(=O)N2)[C@H](C(=O)N2CCN(c3ncccn3)CC2)[C@H]2C(=O)O[C@H](c3ccccc3)[C@H](c3ccccc3)N2[C@@H]1c1ccc(O)cc1
composite z-score: 0.143
--
mol: O=C1O[C@H](c2ccccc2)[C@H](c2ccccc2)N2[C@H]1[C@@H](C(=O)O)[C@]1(C(=O)Nc3ccc(C#CCCO)cc31)[C@H]2c1ccccc1OCCO
composite z-score: 0.627
